System: SK-MEL-2 melanoma
assay.method.text: NCI tumour cell line growth inhibition, 48 h
Readings of TGI for the listed compounds

Reference set (2 entries):
1) Cc1nnc2n1-c1ccccc1C(=S)N1CSCC21 (stereo unspecified); > 100 µM
2) CCc1cc(O)c(Cl)c(C)c1Cl; > 100 µM

The compound listed as `CC1(C)CC(=O)c2c(nc3ccc4ccccc4c3c2-c2ccc(NC(=O)CCC(=O)Nc3ccc(-c4c5c(nc6ccc7ccccc7c46)CC(C)(C)CC5=O)cc3)cc2)C1` has a reported TGI of > 100 µM

The compound listed as `CC(=O)n1c2ccccc2c2nc3nc(Oc4ccc(C)cc4)c4ccccc4c3cc21` has a reported TGI of > 100 µM

The compound listed as `CN=S(=O)(c1ccccc1)c1ccccc1` has a reported TGI of > 100 µM

The compound listed as `COc1cc[n+](C)cc1` has a reported TGI of > 100 µM

---

System: SK-MEL-5 melanoma
assay.method.text: NCI tumour cell line growth inhibition, 48 h
Tick Met if TGI is 30 µM or greater. Tick Not met if TGI is less than 30 µM.

Worked examples, 5 compounds total:
1) Cc1ccc(N=C2C(=O)C3=C(OC(C)(C)CC3)c3ccccc32)cc1; Not met
2) COC(=O)c1cc(C#Cc2cc(OC)ccc2OC)ccc1OC; Met
3) Nc1cc(N)c(N)cc1N; Not met
4) CCCCCCCCCc1cc(=O)c2ccc(O)cc2o1; Met
5) COc1ccc(NC(=O)/C(=C/c2ccc(N(CCC#N)CCC#N)cc2)NC(=O)c2cc([N+](=O)[O-])ccc2Cl)cc1; Met

Does the compound O=C1C2=C(c3ccccc31)C(c1ccccc1)NC(=S)N2 (stereo not drawn) have recorded TGI that is 30 µM or more? Met

Does the compound `CCc1cc(O)c(Cl)c(C)c1Cl` have recorded TGI that is 30 µM or more? Met

---

Readings of TGI for the listed compounds
System: M14 melanoma
assay.method.text: NCI tumour cell line growth inhibition, 48 h

1) CCCCn1cnc2c(SC)ncnc21; > 100 µM
2) Clc1ccc(C2NN=C3c4ccccc4OCC32)cc1 (stereo unspecified); > 45.1 µM
3) Cc1ccc(C(O)c2cnc(C)n2Cc2ccccc2)cc1 (stereo unspecified); > 100 µM
4) CN(C)c1ccc(/C=C/C=C(/C#N)c2ccccc2)cc1; > 85.1 µM
5) COc1cc2c(cc1OC)CC(N=[N+]=[N-])c1cc(OC)c(OC)cc1/C=C\2 (stereo unspecified); > 100 µM

Field: next compound
The compound listed as `O=[N+]([O-])c1ccc2nc(/C=C(\O)c3ccc(F)cc3)c(/C=C(\O)c3ccc(F)cc3)nc2c1` has a reported TGI of > 100 µM

---

Tested on: SK-MEL-5 melanoma
assay.method.text: NCI tumour cell line growth inhibition, 48 h
reported.endpoint: TGI

Reference set (2 entries):
1) COc1ccc(C2S/C(=C\c3ccc(O)cc3)C(=O)N2NC(=O)Cc2ccccc2)cc1 (stereo not drawn); > 100 µM
2) COc1cc[n+](C)cc1; > 100 µM

Field: next molecule
The molecule listed as `N[C@H](C(=O)O)[C@H](Cl)CC(=O)O` has a reported TGI of > 100 µM

---

System: HCT-15 colon
assay.method.text: NCI tumour cell line growth inhibition, 48 h
reported.endpoint: TGI

Reference set (3 entries):
1. Cc1nnc2n1-c1ccccc1C(=S)N1CSCC21 (stereo unspecified); > 100 µM
2. c1ccc(CSc2nc(N3CCOCC3)c3cn[nH]c3n2)cc1; > 100 µM
3. COc1ccc(CCNC(=O)Cc2cc(OC)c(OC)cc2CO)cc1OC; > 100 µM

The compound listed as COC(=O)c1c(C)cccc1CC1Cc2c(C)cccc2C1=O (stereo unspecified) has a reported TGI of > 100 µM

The compound listed as `C#C[C@]1(O)CC[C@H]2[C@@H]3CCc4cc(OC(=O)c5cccc6cc7ccccc7nc56)ccc4[C@H]3CC[C@@]21C` has a reported TGI of > 100 µM

The compound listed as `O=c1[nH]nc(Cc2ccccc2)n1Nc1ccccc1` has a reported TGI of > 100 µM
